For each entry below, report its Top FACS signal_Fold change (Jurkat-NFAT-luciferase activation, normalized to ch147E11E2) value.
target or system: human CD3 (human, UniProt P07766 23-207; P04234 22-171; P09693 23-182)
Sequence (P07766 23-207, chain 1 of 3): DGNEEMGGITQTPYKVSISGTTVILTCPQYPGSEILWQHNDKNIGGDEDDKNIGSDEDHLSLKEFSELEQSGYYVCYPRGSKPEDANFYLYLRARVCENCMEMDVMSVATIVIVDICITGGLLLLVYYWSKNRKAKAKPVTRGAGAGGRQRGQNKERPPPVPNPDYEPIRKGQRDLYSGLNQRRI
Sequence (P04234 22-171, chain 2 of 3): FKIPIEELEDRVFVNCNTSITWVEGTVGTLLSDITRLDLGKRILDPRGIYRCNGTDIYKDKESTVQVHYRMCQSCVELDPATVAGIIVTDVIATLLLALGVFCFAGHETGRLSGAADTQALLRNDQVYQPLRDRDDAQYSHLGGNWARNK
Sequence (P09693 23-182, chain 3 of 3): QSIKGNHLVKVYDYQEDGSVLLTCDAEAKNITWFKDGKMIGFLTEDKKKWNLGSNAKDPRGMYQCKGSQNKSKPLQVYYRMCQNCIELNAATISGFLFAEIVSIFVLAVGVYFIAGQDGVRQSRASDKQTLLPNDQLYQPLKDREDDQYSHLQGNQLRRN
assay remarks: cell-based or functional assay
Numbers only, in fold.

Reference set, count: 2
binder	result number
hu147E2-L2H3 (antibody, V domains shown, humanized 147E11E2; also called hu14E2-L2H3) VH: EVQLVQSGAEVKKPGSSVKVSCKASGYTFTSYWMHWVRQAPGQGLEWMGNINPSNGATNYNEKFKSRVTLTVDKSTSTAYMELSSLRSEDTAVYYCARDRSSQYYFDYWGQGTTVTVSS VL: DIVMTQSPDSLAVSLGERATINCKSSQSLLNSRSRKNYLAWYQQKPGQSPKLLIYWASTRESGVPDRFSGSGSGTDFTLTISSLQAEDVAVYYCTQSYTLRTFGGGTKVEIK	0.78
hu147E2-L3H4 (antibody, V domains shown, humanized 147E11E2; also called hu14E2-L3H4) VH: EVQLVQSGAEVKKPGSSVKVSCKASGYTFTSYWMHWVRQAPGQGLEWIGNINPSNGATNYNEKFKSRATLTVDKSTSTAYMELSSLRSEDTAVYYCARDRSSQYYFDYWGQGTTVTVSS VL: DIQMTQSPSSLSASVGDRVTITCKSSQSLLNSRSRKNYLAWYQQKPGKAPKLLIYWASTRESGVPSRFSGSGSGTDFTLTISSLQPEDFATYYCTQSYTLRTFGGGTKVEIK	0.6

Now examine the next entry.
Exam item: Please report the measured Top FACS signal_Fold change (Jurkat-NFAT-luciferase activation, normalized to ch147E11E2) for hu147E2-L1H3 (antibody, V domains shown, humanized 147E11E2; also called hu14E2-L1H3) VH: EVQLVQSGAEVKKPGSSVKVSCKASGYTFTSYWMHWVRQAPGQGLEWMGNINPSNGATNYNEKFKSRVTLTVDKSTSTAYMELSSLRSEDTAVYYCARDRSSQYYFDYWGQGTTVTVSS VL: DIVMTQSPDSLAVSLGERATINCKSSQSLLNSRSRKNYLAWYQQKPGQPPKLLIYWASTRESGVPDRFSGSGSGTDFTLTISSLQAEDVAVYYCTQSYTLRTFGGGTKVEIK
Marked response: 1
